System: OVCAR-3-derived ovarian cancer stem-like cells (spheroids)
method notes: cell growth relative to untreated control; higher = more growth (less inhibition)
condition set: 2.29 µM; 96 h
Param threshold (90%) applies to cell growth; output condition met when value >= threshold, condition not met when value < threshold.

Is cell growth for Oc1cc(-n2cccn2)c(O)cc1-n1cccn1 at or above 90%?
condition met

----------
Tested on: OVCAR-3-derived ovarian cancer stem-like cells (spheroids)
method notes: cell growth relative to untreated control; higher = more growth (less inhibition)
condition set: 2.29 µM; 96 h
property label: cell growth
Provide a numeric answer, followed by its unit.

Cc1c(C(=O)C/C(=N\O)C(=O)Nc2cc(Cl)c(Cl)cc2Cl)[n+](=O)c2ccccc2n1[O-]: 68.5%
Cc1ccc(C)c(NC(=O)C(=O)C(C(=O)c2ccc3ccccc3c2)C2OC(=O)c3ccccc32)c1 (stereo unspecified): 121%
COc1cc2c(c(O)c1OC)-c1c(cc(OC)c(OC)c1OC)C[C@@H](C)[C@@H](C)C2: 82%
NCCSSCc1ccccc1CSSCCN: 109%
CN(C)/N=N/c1nc[nH]c1C(N)=O: 164%
Nc1ccc2c(c1)S(=O)(=O)c1cc(N)ccc1-2: 112%
COC(=O)NC1C(C)OC(OC2C/C=C(/C)C3C=CC4C(OC5CC(OC6CCC(OC7CC(O)C(OC8CCC(O)C(C)O8)C(C)O7)C(C)O6)C(OC(C)=O)C(C)O5)C(C)CC(C)C4C3(C)/C(O)=C3/C(=O)OC4(CC(C=O)=CC(O)C4/C=C\2C)C3=O)CC1(C)[N+](=O)[O-] (stereo unspecified): 61.9%
COC(=O)c1ccccc1OCc1cc(=O)oc2ccc(C)cc12: 115%

Now, please, on to the next molecule.
Given Cc1ccc(S(=O)(=O)c2ccc([N+](=O)[O-])o2)cc1 , state its recorded cell growth.
47.4%

----------
Recorded cell growth by entry
Tested on: OVCAR-3-derived ovarian cancer stem-like cells (spheroids)
method notes: cell growth relative to untreated control; higher = more growth (less inhibition)
condition set: 2.29 µM; 96 h

COc1cc(-c2cc(=O)c3c(OC)c(OC)c(OC)c(OC)c3o2)cc(OC)c1OC: 79%
CN(CO)c1nc(N(C)CO)nc(N(C)CO)n1: 83.5%
Cc1nc(-n2nc(-c3ccccc3)cc2-c2ccccc2)sc1C(=O)/C=C/c1ccc(Cl)c(Cl)c1: 109%

Given CN1CCN(CCCN2c3ccccc3Sc3ccc(C(F)(F)F)cc32)CC1 , state its recorded cell growth.
79.1%

----------
Tested on: OVCAR-3-derived ovarian cancer stem-like cells (spheroids)
method notes: cell growth relative to untreated control; higher = more growth (less inhibition)
condition set: 2.29 µM; 96 h
property label: cell growth (%)
Number only, in %; omit the unit.

[N-]=[N+]=NC1=NNC2(C(=O)N1)c1ccccc1-c1ccccc12: 99.3
N=N/C(=C\c1c(O)[nH]c2ccccc12)c1ccccc1: 64.5
OCCNCN(CNCCO)c1nc(N(CNCCO)CNCCO)nc(N(CNCCO)CNCCO)n1: 126
O=[N+]([O-])c1ccc(N=Nc2c(O)[nH]c3ccccc23)c([N+](=O)[O-])c1: 132
N#CC(=S)Nc1ccc(Cl)c(Cl)c1: 90.6

Given CC(C)(C)CC(C)(C)NCC(O)COc1ccc(C(C)(C)c2ccc(OCC(O)CNC(C)(C)CC(C)(C)C)cc2)cc1 (stereo unspecified) , state its recorded cell growth.
7.1
